I'd be grateful if you could share measured IC50 for these entries.
- Tgt: T1, endothelin A receptor (ETaR) (Homo sapiens (assumed), UniProt P25101)
- T1 construct: endothelin A receptor (ETaR), a GPCR; plasmid and cells were gifts from Gmax Biopharm LLC; also called GPCR; ETaR-expressing CHO cells; source: CHO cells stably expressing and displaying ETaR (provided by Gmax Biopharm LLC); on cells, and in vesicles prepared from them
- Method Notes: flow cytometry on cells; competition of unlabelled full-length antibodies, obtained similarly as for scFv; L = 13 nM; Ki = IC50/(1 + L/Kd)
- Condition Parameters: one partner purified
Just the number in nM, nothing appended.

# return recorded IC50 for input anti-GPCR (ETaR) antibody 80H4, full-length, mutant D73H (antibody, V domains shown, heavy-chain variable region as the heavy chain of m13; heavy-chain constant region as in m13; light-chain variable region as the light chain of m13; light-chain constant region as in m13; source: Expi293F, heavy and light chains co-expressed, purified from supernatant (Protein A); copies: 2 + 2) VH: EVQLLESGGGLVQPGGSLRLSCAASGFTFSSYGMSWVRQAPGKGLEWVSAISTNGATAYYADSVKGRFTISRHNSKNTLYLQMNSLRAEDTAVYYCATEKGAMGYWGQGTLVTVSS VL: DIVMTQTPLSLSVTPGQPASISCRSSQNIVHSTGNTYLEWYLQKPGQSPQLLIYKVSNRFSGVPDRFSGSGSGTDFTLKISRVEAEDVGVYYCFQGSHFPFTFGQGTKVEIK
30.6

# return recorded IC50 for input anti-GPCR (ETaR) antibody 80H4, full-length, mutant S115N-S30R-D73H (antibody, V domains shown, heavy-chain variable region as the heavy chain of m13; heavy-chain constant region as in m13; light-chain variable region as the light chain of m13; light-chain constant region as in m13; also called S115N-D73H-S30R; source: Expi293F, heavy and light chains co-expressed, purified from supernatant (Protein A); copies: 2 + 2) VH: EVQLLESGGGLVQPGGSLRLSCAASGFTFRSYGMSWVRQAPGKGLEWVSAISTNGATAYYADSVKGRFTISRHNSKNTLYLQMNSLRAEDTAVYYCATEKGAMGYWGQGTLVTVNS VL: DIVMTQTPLSLSVTPGQPASISCRSSQNIVHSTGNTYLEWYLQKPGQSPQLLIYKVSNRFSGVPDRFSGSGSGTDFTLKISRVEAEDVGVYYCFQGSHFPFTFGQGTKVEIK
16

# return recorded IC50 for input anti-GPCR (ETaR) antibody 80H4, full-length, wild type (antibody, V domains shown, heavy-chain variable region of 80H4; heavy-chain constant region (HC); labelled by anti-human IgG; light-chain variable region of 80H4; light-chain constant region (LC); also called WT; full-length wild-type antibody; source: Expi293F, heavy and light chains co-expressed, purified from supernatant (Protein A); copies: 2 + 2) VH: EVQLLESGGGLVQPGGSLRLSCAASGFTFSSYGMSWVRQAPGKGLEWVSAISTNGATAYYADSVKGRFTISRDNSKNTLYLQMNSLRAEDTAVYYCATEKGAMGYWGQGTLVTVSS VL: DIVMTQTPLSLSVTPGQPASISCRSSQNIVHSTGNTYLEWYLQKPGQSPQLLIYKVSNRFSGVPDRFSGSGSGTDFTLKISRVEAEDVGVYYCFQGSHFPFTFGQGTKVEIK
50.1

# return recorded IC50 for input anti-GPCR (ETaR) antibody 80H4, full-length, mutant S115N-S30R (antibody, V domains shown, heavy-chain variable region as the heavy chain of m13; heavy-chain constant region as in m13; light-chain variable region as the light chain of m13; light-chain constant region as in m13; source: Expi293F, heavy and light chains co-expressed, purified from supernatant (Protein A); copies: 2 + 2) VH: EVQLLESGGGLVQPGGSLRLSCAASGFTFRSYGMSWVRQAPGKGLEWVSAISTNGATAYYADSVKGRFTISRDNSKNTLYLQMNSLRAEDTAVYYCATEKGAMGYWGQGTLVTVNS VL: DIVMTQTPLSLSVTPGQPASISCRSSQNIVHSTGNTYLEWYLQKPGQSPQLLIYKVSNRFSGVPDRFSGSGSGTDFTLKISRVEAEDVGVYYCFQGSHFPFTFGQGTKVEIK
22.4
